Below, each entry is listed alongside its reported Microsome stability (human); in vitro T1/2.
Assay: Microsomal stability (MIC), human
Type: in vitro ADME
Details: human liver microsomes
Experimental: Stability of compound in liver microsomes was tested in duplicate by incubating compound at 1 μM for 60 minutes at 37° C. Compound level at 60 minutes was compared to level at 0 minutes, and percent remaining was calculated. Assay Parameters Available species: human and mouse (CD-1). Compound requirements: 5 μL of a 10 mM DMSO solution. Incubation time: 60 minutes at 37° C. Test Concentration: 1 μM. Microsomes with NADPH without compound-matrix interference. […]

Examples from the recorded data:
Cc1ccc(S(C)(=O)=O)cc1C1(C)C2=C(CC(C)(C)CC2=O)Nc2n[nH]c(CC(C)(C)C)c21 (stereo not shown) : 104.9 min
CC1(C)CC(=O)C2=C(C1)Nc1n[nH]c(C3CC(F)(F)C3)c1C21COc2ccccc21 (stereo not shown) : >145 min
CC(C)(C)Cc1[nH]nc2c1C1(CN(S(=O)(=O)CC3CC3)C1)C1=C(CC3(CCC3)CC1=O)N2 : 8.877 min
CC(C)(C)Cc1[nH]nc2c1C(C)(c1cccc(S(C)(=O)=O)c1)C1=C(CC(C)(C)CC1=O)N2 (stereo not shown) : 12.3 min
CN1CC2(C3=C(CC(C)(C)CC3=O)Nc3n[nH]c(CC(C)(C)C)c32)c2ccccc21 (stereo not shown) : 0.6 min
CC(C)(C)Cc1[nH]nc2c1C(C)(c1cc(S(C)(=O)=O)ccc1F)C1=C(CC(C)(C)CC1=O)N2 (stereo not shown) : 26.2 min

response.value for CN1CC2(C3=C(CC(C)(C)CC3=O)Nc3n[nH]c(C4CC(F)(F)C4)c32)c2ccccc21 (stereo not shown) (field: Microsome stability (human); in vitro T1/2) = 1.4 min
